melting point by entry:
ENDPOINT NAME: melting point

INSERT INTO assay_data (compound, endpoint_name, value_measured) VALUES
  ('CC(C)(C)OC(=O)N1CCC(CCc2c3c(nn2C(C)(C)C)c(=O)[nH]c2ccccc23)CC1', 'melting point', '223 to 225 °C'),
  ('C=C(C(=O)c1ccc(C=CC(=O)O)cc1)c1c(F)c(F)c(F)c(F)c1F', 'melting point', '214 to 217 °C'),
  ('CCOc1nnc2cc(Cl)ccc2n1', 'melting point', '90 to 92 °C'),
  ('COc1cc(OC)c(F)c(N=Cc2cnc(SC)nc2NC2CC2)c1F', 'melting point', '172 to 174 °C'),
  ('COc1ccc(C(=O)CN(Cc2ccccc2)Cc2ccccc2)cc1C(N)=O', 'melting point', '113 to 114 °C'),
  ('Cc1nc(-n2nnc(C(=O)NCc3ccccc3)c2C)sc1C(=O)NCc1ccccc1', 'melting point', '183 to 186 °C'),
  ('O=Cc1nccnc1OCc1ccccc1', 'melting point', '69.4 °C'),
  ('CCC(=O)N(C(=O)CC)c1c(I)cc(Br)cc1S(=O)(=O)Cl', 'melting point', '127 to 132 °C'),
  ('Cc1ccc(C#N)cc1-c1cc2cnc(NC3CCOCC3)nc2n(C)c1=O', 'melting point', '254 °C'),
  ('NCC(F)(F)C(F)(F)C(F)(F)C(F)(F)CN', 'melting point', '44 to 45 °C'),
  ('CCCCCCCCC(SCCCCCC)C(=O)Nc1c(SC)cc(SC)c2ncccc12 (stereo not given)', 'melting point', '91 to 93 °C'),
  ('COc1ccccc1N1CCN(CCCCc2ccc(C3CCC(=O)N3)cc2)CC1 (stereo not given)', 'melting point', '130 to 131 °C'),
  ('O=P(O)(O)C(O)(Cc1c[nH]cn1)P(=O)(O)O', 'melting point', '> 290 °C'),
  ('Cc1cc(-c2ccc(C(F)(F)F)cc2)cc(-c2ccnc(-c3ccc(S(N)(=O)=O)s3)c2)n1', 'melting point', '> 250 °C'),
  ('CCCCN1CCC[C@H]1CNC(=O)c1cc(Cl)cc2c1OC(C)(C)CN2C', 'melting point', '110 to 112 °C'),
  ('COc1ccc(Cl)cc1C(NC(C)=N)(c1ccccc1)c1ccccc1', 'melting point', '143 to 145 °C'),
  ('Cc1ncccc1C(C#N)N1CCN(C(=O)Cc2ccc(OCc3ccc4ccccc4n3)cc2)CC1 (stereo not given)', 'melting point', '64 to 68 °C'),
  ('CCCc1c(OCCCSCCBr)ccc(C(C)=O)c1O', 'melting point', '74 to 75 °C'),
  ('Cc1ccc(Nc2nc(Cl)nc(NC3CCCCCC3)n2)cc1F', 'melting point', '149 °C'),
  ('COc1ccccc1NC(=O)Nc1nc(Nc2ccccc2-c2ccccc2)nc(N2CCC(C(=O)O)CC2)n1', 'melting point', '130 to 135 °C');

---

melting point values, listed per item
ENDPOINT NAME: melting point

INSERT INTO measurements (structure_smiles, endpoint_name, value_measured) VALUES
  ('On1nnc2cccnc21', 'melting point', '216 to 217 °C'),
  ('CCc1cc(C(=O)Nc2ccccc2)on1', 'melting point', '122 to 124 °C'),
  ('Cn1nc(-c2ccc(C(=O)N3CCN(C4CCCC4)CC3)cc2)ccc1=O', 'melting point', '177 to 179 °C'),
  ('NC(=O)c1[nH]cnc1OC(=O)c1ccccc1C(=O)OCc1ccccc1', 'melting point', '122 to 124 °C'),
  ('O=[N+]([O-])c1cn2c(n1)O[C@@H](COc1ccc(N3CCC(Nc4ccc(Oc5ccc(OC(F)(F)F)cc5)cc4)CC3)cc1)CC2', 'melting point', '120 to 121 °C');

---

ENDPOINT NAME: melting point

INSERT INTO assay_data (compound, endpoint_name, value_measured) VALUES
  ('CCOP(=O)(OCC)Oc1cc2c(c3ccccc13)Nc1ccccc1S2', 'melting point', '162 to 163 °C'),
  ('Cc1nnc2ccc(-c3ccc([N+](=O)[O-])c(C(F)(F)F)c3)nn12', 'melting point', '293 to 295 °C'),
  ('O=C1CCC(N2Cc3c(OCc4cc(CN5CCOCC5)on4)cccc3C2=O)C(=O)N1 (stereo not given)', 'melting point', '218 to 220 °C'),
  ('Cc1c(Br)cc(C(C)(C)C)c(O)c1-c1nc2cc(OC(F)(F)F)ccc2[nH]1', 'melting point', '235 to 236 °C'),
  ('CCOC(=O)c1cnc2sc(Br)c(C)c2c1O', 'melting point', '214 to 216 °C'),
  ('COc1ccc(C(=N)c2ccc(Cl)cc2)c(O)c1', 'melting point', '212 to 214 °C'),
  ('CN1CCN(Cc2cnc(Nc3cc(-c4cccc(-n5ncc6cc(C(C)(C)C)cc(F)c6c5=O)c4CO)nn(C)c3=O)cn2)CC1', 'melting point', '215 to 218 °C'),
  ('O=C1c2cccc3c(N4CCCC4)c(Br)cc(c23)C(=O)N1O', 'melting point', '170 to 172 °C'),
  ('CCOC(=O)c1c(C(F)(F)F)n(C)cc(-c2cc(OC(C)C)c(Cl)cc2F)c1=O', 'melting point', '170 to 172 °C'),
  ('Cc1ccc(S(=O)(=O)Nc2cc3c(c(C(=O)O)c2)NCCC3)cc1', 'melting point', '251 °C'),
  ('COc1cc(F)ccc1-c1cncc(OC2SCC(O)C(O)C2O)c1 (stereo not given)', 'melting point', '218 to 228 °C'),
  ('CSc1ncccc1NC(=O)CCCCCCCCSc1nc2ccccc2o1', 'melting point', '84 to 85 °C'),
  ('Cc1cc2c(c3ccc(=O)[nH]c13)O[C@@H](CN)[C@@H]2CO (racemic)', 'melting point', '> 300 °C'),
  ('O=c1c(CCl)c[nH]c2c([N+](=O)[O-])cccc12', 'melting point', '228 to 235 °C'),
  ('CCC1(CCCCN2CCN(c3cccc(OC)c3)CC2)C(=O)Nc2ccccc21 (stereo not given)', 'melting point', '123 to 125 °C'),
  ('O=C1Nc2cc(CN3CCC(c4ccccc4)CC3)ccc2OC1F (stereo not given)', 'melting point', '217 to 221 °C'),
  ('COc1cc2c(c(Cl)c1Cl)C(=O)C(CCCl)=C2', 'melting point', '103 to 105 °C'),
  ('Cc1cc(NC(=O)Cc2ccccc2)cc(C)c1S(=O)(=O)C[N+](=O)[O-]', 'melting point', '158 to 159 °C'),
  ('Cc1cc(-c2cnn3c(C(F)(F)F)cc(-c4ccc(F)c(Cl)c4)nc23)ccn1', 'melting point', '292 °C'),
  ('Nc1ccc2c(c1)CC(N)CC2 (single isomer, unassigned; (+))', 'melting point', '33 to 34 °C'),
  ('CCCc1c(C(C)C)nc(C(C)C)c(CO)c1-c1ccc(F)cc1O', 'melting point', '138 to 141 °C'),
  ('CC(CO)(c1ccc(Cl)cc1)N1CCN(c2ccc(CO)c(Cl)c2)CC1 (stereo not given)', 'melting point', '126 to 130 °C'),
  ('O=C1N[C@@H](CC2CCCCC2)[C@H]1O', 'melting point', '147 to 148 °C'),
  ('Cn1cnc(=O)c(-c2cccc(C(F)(F)F)c2)c1', 'melting point', '155 to 156 °C'),
  ('C=CCSc1nc(=O)n(C(=O)NC)s1', 'melting point', '110 °C'),
  ('Cc1ccc2c(c1)c(=O)c1c(cnn1C)n2-c1cccc(I)c1', 'melting point', '123 °C'),
  ('N#Cc1cnc2cnc(F)cc2c1Nc1cccc(Br)c1', 'melting point', '185 to 195 °C'),
  ('COc1ccc(C[C@H](C[C@H](O)[C@H](Cc2ccccc2)NC(=O)OC(C)(C)C)C(=O)O)c(OC)c1', 'melting point', '144 to 145 °C'),
  ('NCC1(c2cccc(C(F)(F)F)c2)CCN(C(=O)CN2CCN(c3cnccn3)CC2)CC1', 'melting point', '152 to 153 °C'),
  ('FC(F)(F)c1ccc2c(Nc3ccncc3)noc2c1', 'melting point', '249 to 250 °C'),
  ('CON=C1CN(c2c(F)cc3c(=O)c(C(=O)O)cn(C4CC4)c3c2Cl)CC12CN(C(=O)OC(C)(C)C)C2', 'melting point', '203 to 204 °C'),
  ('ClCCCCCOc1ccc(Br)c(CCOCc2ccccc2)c1', 'melting point', '54 to 55 °C'),
  ('Cc1ccc(S(=O)(=O)OCC2CCc3scnc3C2)cc1 (stereo not given)', 'melting point', '87 to 88 °C'),
  ('CCOC(=O)c1cc(NCc2c(C)cccc2C)c2nc(C)n(OC)c2c1', 'melting point', '165 to 166 °C'),
  ('CC1=C(C)C(O)N(c2nnc(C(C)(C)C)s2)C1=O (stereo not given)', 'melting point', '179 to 182 °C'),
  ('CCOCc1nc2c(N)nc3ccccc3c2n1Cc1cc(-c2ccccc2)on1', 'melting point', '221 to 223 °C'),
  ('CC(C)OP(C)(=O)COS(=O)(=O)c1c(Cl)cccc1C(C)C (stereo not given)', 'melting point', '69.5 to 70.5 °C'),
  ('NCC1COc2ccc3[nH]c(=O)oc3c2O1 (stereo not given)', 'melting point', '> 250 °C'),
  ('CCOC(=O)c1[nH]ccc1OCC', 'melting point', '81 to 83 °C'),
  ('COC(=O)N[C@H](C(=O)N[C@@H](Cc1ccccc1)[C@@H](O)CN(Cc1ccc(-c2cncs2)cc1)NC(=O)OC(C)(C)C)C(C)C', 'melting point', '114 to 115 °C');
